# System Under Test: T1, Shh-Flag (human Shh residues 25-197 with C-terminal Flag-Tag) (human, UniProt Q15465 25-197)
# T1 construct: range 25-197; not shown: C-terminal Flag-Tag
# T1 sequence (Q15465 other isoform, or with tags, fused parts or gaps limits assumed): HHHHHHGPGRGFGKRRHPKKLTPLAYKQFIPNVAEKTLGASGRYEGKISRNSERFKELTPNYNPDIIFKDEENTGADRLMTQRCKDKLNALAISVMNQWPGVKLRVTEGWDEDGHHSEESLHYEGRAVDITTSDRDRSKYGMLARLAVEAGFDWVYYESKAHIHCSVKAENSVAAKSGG
# Measurement Description: competition ELISA: Hip-L2 peptide dilution with 800 nM Hhip protein on Shh-Flag captured by anti-Flag M2, anti-His-HRP detection
pIC50: −log10 of the molar value.
Quantity Kind: pIC50

binder="GDGMITLDDMEEMDGLSDFTG (also called Hhip1-L2 peptide; peptide derived from the Hhip1β12 L2 loop) [Hip-L2 peptide (GDGMITLDDMEEMDGLSDFTG) of the competition ELISA]" quantity_kind=pIC50 value_observed=3.82
